B1: LINE1-full (parent)
chain: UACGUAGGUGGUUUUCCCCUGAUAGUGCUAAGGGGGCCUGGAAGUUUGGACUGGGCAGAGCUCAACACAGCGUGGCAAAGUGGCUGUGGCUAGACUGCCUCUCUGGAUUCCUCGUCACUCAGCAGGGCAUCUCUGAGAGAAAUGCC

# Variants of: B1
# EXPERIMENT: self-cleavage, relative activity (ratio to wild type); higher = more cleavage; in vitro, sequencing; the parent is a self-cleaving ribozyme
TEST_READOUT: self-cleavage

Consider the worked cases shown below.
>>> readout_value("U102A U143C")
1.25
>>> readout_value("A50G U109A")
0.84
>>> readout_value("U1C A107G")
0.75

Look up self-cleavage: A79G C113A
0.14
